These data points were gathered from ChEMBL document CHEMBL1135127.

- Test system: Rattus norvegicus
- test.details: In vivo prevention of sciatic nerve fructose accumulation in streptozotocin diabetic rat by acute assay (tid x 4)
- Assay type: functional
Form field: ED90 (one value per entry).
attribute.measured: ED90 (mg/kg/day)

- compound: "CC(=O)c1nccc(N2C[C@@H](C)N(c3ccnc(C(C)=O)n3)[C@@H](C)C2)n1"
  attribute.measured: "ED90"
  units.symbol: "mg/kg/day"
  recorded.measurement: 0.9
- compound: "CC(=O)c1nccc(N2C[C@@H](C)N(c3ccnc([C@@H](C)O)n3)[C@@H](C)C2)n1"
  attribute.measured: "ED90"
  units.symbol: "mg/kg/day"
  recorded.measurement: 0.2
- compound: "CC(=O)c1nccc(N2[C@H](C)CN(c3ccnc([C@@H](C)O)n3)C[C@@H]2C)n1"
  attribute.measured: "ED90"
  units.symbol: "mg/kg/day"
  recorded.measurement: 0.5
- compound: "C[C@@H]1CN(c2ccnc([C@@H](C)O)n2)C[C@H](C)N1c1ccnc([C@@H](C)O)n1"
  attribute.measured: "ED90"
  units.symbol: "mg/kg/day"
  recorded.measurement: 0.2
- compound: "CC(O)c1nccc(N2C[C@@H](C)N(c3ccnc(C(C)O)n3)[C@@H](C)C2)n1 (stereo partly drawn)"
  attribute.measured: "ED90"
  units.symbol: "mg/kg/day"
  recorded.measurement: 0.6
- compound: "C[C@H](O)c1nccc(N2[C@H](C)CN(c3ccnc([C@@H](C)O)n3)C[C@@H]2C)n1"
  attribute.measured: "ED90"
  units.symbol: "mg/kg/day"
  recorded.measurement: 0.8
- compound: "C[C@H](O)c1nccc(N2C[C@@H](C)N(c3ccnc([C@@H](C)O)n3)[C@@H](C)C2)n1"
  attribute.measured: "ED90"
  units.symbol: "mg/kg/day"
  recorded.measurement: 0.4
- compound: "C[C@H](O)c1nccc(N2C[C@@H](C)N(c3ccnc([C@H](C)O)n3)[C@@H](C)C2)n1"
  attribute.measured: "ED90"
  units.symbol: "mg/kg/day"
  recorded.measurement: 0.7
